test system: MDA-MB-231; assay: relative cell viability, compound + RSL3, vs DMSO (fraction of DMSO control); higher = less growth inhibition; settings: 72 h;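 also: breast cancer cell viability read out with the CCK-8 kit after co-treatment of each compound with the ferroptosis inducer RSL3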
relative cell viability reference
Answer using only a numeral; do not append any unit.

Previously resolved entries follow.
COc1c(/C=C/C(=O)c2ccc(O)cc2)ccc(O)c1CC=C(C)C + COC(=O)c1ccc([C@H]2c3[nH]c4ccccc4c3C[C@H](C(=O)OC)N2C(=O)CCl)cc1 ... 0.585
Cc1nc2c([nH]1)c(=O)n(C)c(=O)n2Cc1ccco1 [Furafylline] + COC(=O)c1ccc([C@H]2c3[nH]c4ccccc4c3C[C@H](C(=O)OC)N2C(=O)CCl)cc1 ... 0.596
COP(=O)(OC)OC(c1ccc(Cl)cc1)P(=O)(OC)OC (stereo not given) [Mifobate] + COC(=O)c1ccc([C@H]2c3[nH]c4ccccc4c3C[C@H](C(=O)OC)N2C(=O)CCl)cc1 ... 0.669
CN(C)C(=N)NC(=N)N [Metformin] + COC(=O)c1ccc([C@H]2c3[nH]c4ccccc4c3C[C@H](C(=O)OC)N2C(=O)CCl)cc1 ... 0.542

Request: Return value of relative cell viability for input C[C@]12C=CC(=O)N[C@@H]1CC[C@@H]1[C@@H]2CC[C@]2(C)[C@@H](C(=O)Nc3cc(C(F)(F)F)ccc3C(F)(F)F)CC[C@@H]12 [Dutasteride] + COC(=O)c1ccc([C@H]2c3[nH]c4ccccc4c3C[C@H](C(=O)OC)N2C(=O)CCl)cc1 , no commentary.
Response: 0.427

====

test system: HCC1937; assay: relative cell viability, compound + RSL3, vs DMSO (fraction of DMSO control); higher = less growth inhibition; details: 72 h
Each entry falls into one class according to its relative cell viability; the ranges are interval 1 (below 0.3), interval 2 (0.3 to below 0.6), interval 3 (0.6 or more)

Past entries and their recorded results:
Oc1ccc2c(c1)OCO2 [Sesamol] + COC(=O)c1ccc([C@H]2c3[nH]c4ccccc4c3C[C@H](C(=O)OC)N2C(=O)CCl)cc1 ... interval 2
CCc1ccc(N(CC(C)C)S(=O)(=O)c2ccc(OCC3CCOCC3)c(CO)c2)cc1 + COC(=O)c1ccc([C@H]2c3[nH]c4ccccc4c3C[C@H](C(=O)OC)N2C(=O)CCl)cc1 ... interval 2
COc1ccc(-c2cc(=O)c3c(O)c(OC)c(OC)c(OC)c3o2)cc1OC + COC(=O)c1ccc([C@H]2c3[nH]c4ccccc4c3C[C@H](C(=O)OC)N2C(=O)CCl)cc1 ... interval 2

Request: Which bin should I file C[C@H](CCOc1cccc(CC(=O)O)c1)N(Cc1cccc(C(F)(F)F)c1Cl)CC(c1ccccc1)c1ccccc1 + COC(=O)c1ccc([C@H]2c3[nH]c4ccccc4c3C[C@H](C(=O)OC)N2C(=O)CCl)cc1 [RSL3] under?
Response: interval 2

Request: Which bin should I file CC(O)(CC(=O)O)CC(=O)O [Meglutol] + COC(=O)c1ccc([C@H]2c3[nH]c4ccccc4c3C[C@H](C(=O)OC)N2C(=O)CCl)cc1 under?
Response: interval 2

Request: Which bin should I file COc1ccc(C(=O)/C=C/c2ccccc2)cc1 [4'-Methoxychalcone] + COC(=O)c1ccc([C@H]2c3[nH]c4ccccc4c3C[C@H](C(=O)OC)N2C(=O)CCl)cc1 under?
Response: interval 1

Request: Which bin should I file Cc1cc([N+](=O)[O-])ccc1NS(=O)(=O)c1cc(Cl)ccc1Cl + COC(=O)c1ccc([C@H]2c3[nH]c4ccccc4c3C[C@H](C(=O)OC)N2C(=O)CCl)cc1 under?
Response: interval 1

Request: Which bin should I file CCCCCCCCCCCCCCCC(=O)NCCO [Palmidrol] + COC(=O)c1ccc([C@H]2c3[nH]c4ccccc4c3C[C@H](C(=O)OC)N2C(=O)CCl)cc1 under?
Response: interval 3
